organism: Rattus norvegicus; assay: Open TG-GATES - Regimen: Single; type: toxicity, organism-based, Sprague-Dawley; design: regimen Single, gender Male, age 6 weeks; details: in vivo, po, 300 mg/kg, 3 h, tissue Blood, route gavage, dose level Middle
Entries annotated with measured Plat
Measure: Plat (x10_4/uL)

[
  {
    "Compound": "CCc1cc(C(N)=S)ccn1 [ETHIONAMIDE]",
    "Test value": 121.1
  },
  {
    "Compound": "C[C@H](CS)C(=O)N1CCC[C@H]1C(=O)O",
    "Test value": 117.4
  },
  {
    "Compound": "O=C(O)c1cc(/N=N/c2ccc(S(=O)(=O)Nc3ccccn3)cc2)ccc1O",
    "Test value": 115.5
  },
  {
    "Compound": "Clc1ccccc1CN1CCc2sccc2C1",
    "Test value": 124.1
  },
  {
    "Compound": "O=C(O)c1cn(C2CC2)c2cc(N3CCNCC3)c(F)cc2c1=O",
    "Test value": 99.2
  }
]
